experiment: Inhibition of almond beta-glucosidase using 4-nitrophenyl beta-D-glucopyranoside as substrate after 30 mins by spectrophotometric analysis; design: species or system Prunus dulcis
observable: IC50 (µM)

Some solved entries appear below for comparison.
1. CC(=O)O[C@H]1[C@H](OC(C)=O)[C@@H](n2ccc3ccccc32)C=C[C@@H]1n1ccc2ccccc21    52.8
2. CC(=O)O[C@@H]1[C@@H](O)[C@H](OC(C)=O)C=C[C@H]1n1ccc2ccccc21    23.1
3. O[C@H]1[C@H](O)[C@@H](N2CCc3ccccc32)C=C[C@@H]1N1CCc2ccccc21    67.7

[I] C[C@H]1O[C@H](O[C@H]2[C@H](O)[C@@H](O)[C@@H](O[C@H]3[C@H](O)[C@@H](O)C(O)O[C@@H]3CO)O[C@@H]2CO)[C@H](O)[C@@H](O)[C@@H]1N[C@H]1C=C(CO)[C@@H](O)[C@H](O)[C@H]1O (stereo not given in full) [ACARBOSE]
[II] CC(=O)O[C@@H]1[C@@H](O)[C@H](OC(C)=O)C=C[C@H]1N1CCc2ccccc21
Input: Could you tell me which of these two has the smaller IC50 figure? First: I Second: II Identify your selection by its label.
Output: II

###

assay: Inhibition of Bacillus stearothermophilus alpha-glucosidase using 4-nitrophenyl alpha-D-glucopyranoside as substrate after 30 mins by spectrophotometric analysis; set-up: species or system Geobacillus stearothermophilus
pIC50: −log10 of the molar value.
observable: pIC50

1. C[C@H]1O[C@H](O[C@H]2[C@H](O)[C@@H](O)[C@@H](O[C@H]3[C@H](O)[C@@H](O)C(O)O[C@@H]3CO)O[C@@H]2CO)[C@H](O)[C@@H](O)[C@@H]1N[C@H]1C=C(CO)[C@@H](O)[C@H](O)[C@H]1O (stereo not given in full) [ACARBOSE]    5.03
2. CC(=O)O[C@H]1[C@H](OC(C)=O)[C@@H](n2ccc3ccccc32)C=C[C@@H]1n1ccc2ccccc21    4.71
3. CC(=O)O[C@@H]1[C@@H](O)[C@H](OC(C)=O)C=C[C@H]1N1CCc2ccccc21    4.91

[a] O[C@H]1[C@H](O)[C@@H](N2CCc3ccccc32)C=C[C@@H]1N1CCc2ccccc21
[b] CC(=O)O[C@@H]1[C@@H](O)[C@H](OC(C)=O)C=C[C@H]1n1ccc2ccccc21
Input: Could you tell me which of these two has the smaller pIC50 figure? First: a Second: b Identify your selection by its label.
Output: a
(a: 4.74, b: 4.94)
